meta.source: the nanobody polyreactivity screen of Harvey et al. (2022)

# Experiment: yeast display, Sf9 membrane polyspecificity reagent, FACS + sequencing; frameworks hold sequencing errors
Experimental readout: polyreactivity (PSR sort gate)

1) QVQLVESGGGLVQAGGSLRLSCAASGRIFGVNAMGRYRQAPGKERELVAAIDWSDGSTYYADSVKGRFTISRDNAKNTVYLQMNSLKPEDTAVYYCAALPSFLAAQYGDDYWGQGTQVTVSS    low polyreactivity
2) QVQLVESGVGLVQAGGSLRLSCAASGSTFYSNAMGWNRQAPGKERELVASISWSSGSTYYADSVKGRFTISRDNAKNTVYLQMNSLKPEDTAVYYCATDAGGPYRFGYWGQGTQVTVSS    low polyreactivity
3) QVQLVESGGGLVQAGGSLRLRCAASGSTSPNAMGWYRQAPGKERELVAAIWSGGTYYADSVKGRFTISRDNAKNTVYLQMNSLKPEDTAVYYCAVTGVYRGFRYGYWGQGTQVTVSS    low polyreactivity
4) QVQLVESGGGLVQAGGSLRLSCAASGRIFYVYTMGWYRQAPGKERELVAAISWSGGSTHYADSVKGRFTISRDNAKNTVYLQMNSLKPEDTAGYYCNKGVVSRVAFEYWGQGTQLTVSS    low polyreactivity
